assay-text: Stability in hamster plasma assessed as half life
Type: ADME, cell-free, Cricetulus griseus
study-conditions: chinese hamster
Tick label 1 if half-life is 1 h or greater. Tick label 0 if half-life is less than 1 h.

Reported half-life at or above 1 h? CCCCC/C=C\C/C=C\CCCCCCCCOC(=O)[C@H](C)NP(=O)(OC[C@H]1O[C@@](C#N)(c2ccc3c(N)ncnn23)[C@H](O)[C@@H]1O)Oc1cccc2ccccc12 (stereo partly specified) label 1

API: above_or_equal(metric=half-life, cutoff=1 h) for item CCCCCCCCCCCCOC(=O)[C@H](C)NP(=O)(OC[C@H]1O[C@@](C#N)(c2ccc3c(N)ncnn23)[C@H](O)[C@@H]1O)Oc1cccc2ccccc12 (stereo partly specified) label 1

Determine whether this molecule has half-life no lower than 1 h: C[C@H](NP(=O)(OC[C@H]1O[C@@](C#N)(c2ccc3c(N)ncnn23)[C@H](O)[C@@H]1O)Oc1cccc2ccccc12)C(=O)OCc1ccccc1 (stereo partly specified) label 0

Please check the record CCCCCCCCCCCCOC(=O)[C@H](C)NP(=O)(OC[C@H]1O[C@@](C#N)(c2ccc3c(N)ncnn23)[C@H](O)[C@@H]1O)Oc1ccccc1 (stereo partly specified) and state if its half-life is at or above 1 h. label 1

Could you please find out whether CCCCC/C=C\C/C=C\CCCCCCCCOC(=O)[C@H](C)NP(=O)(OC[C@H]1O[C@@](C#N)(c2ccc3c(N)ncnn23)[C@H](O)[C@@H]1O)Oc1ccccc1 (stereo partly specified) has half-life that meets 1 h or exceeds it? label 1

Could you please find out whether `CCC(CC)COC(=O)[C@H](C)N[P@](=O)(OC[C@H]1O[C@@](C#N)(c2ccc3c(N)ncnn23)[C@H](O)[C@@H]1O)Oc1ccccc1` has half-life that meets 1 h or exceeds it? label 0
